Origin of values: PubChem BioAssay AID624330

Please provide measured inhibition for the entries that follow.
Target: Rac GTPase-activating protein 1 (Homo sapiens)
Test: blockers of MgcRacGAP-driven Rac1 GTP hydrolysis – biochemical, ADP Hunter fluorescence, primary and confirmatory, confirmation (AID 624330);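 also: fluorescence reports GDP produced by GAP-driven GTP hydrolysis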
Details: MgcRacGAP-stimulated Rac1 GTP hydrolysis, at 30 µM, active compounds read high, GST-tagged Rac1 F28L mutant substrate
Out of some 340,000 compounds screened, about 2,100 (0.62%) were called active. Not all results are given here. Measured potencies and affinities stand elsewhere.
Use % as the unit, but write only the number.

Fill blank: measured inhibition of the compound COc1ccc(OC)c(/C=C2\SC(N3CCCC(C)C3)=NC2=O)c1 (stereo not given) is ____. 2.99

Fill blank: measured inhibition of the compound CCOC(=O)C1CCCN(C2=NC(=O)/C(=C/c3ccc(OC)cc3)S2)C1 (stereo not given) is ____. 8.26

Fill blank: measured inhibition of the compound Cc1ccc(NC(=O)COC(=O)c2cc(Cl)ccc2[N+](=O)[O-])cc1 is ____. 9

Fill blank: measured inhibition of the compound CC1CCN(C2=NC(=O)/C(=C/c3cccc(O)c3)S2)CC1 is ____. 3.71

Fill blank: measured inhibition of the compound Cn1c(NN)nc2sc3c(c2c1=O)CC(C)(C)OC3 is ____. -17.1
